test description: Cmax in C57BL/6 mouse plasma at 10 mg/kg, po measured upto 24 hrs by LC-MS/MS analysis
Format: ADME, organism-based
measurement type: Cmax (ng/mL)
Could you give me the number in ng/mL? Just the number is fine.

I am curious: what Cmax value has been reported for Cc1cc(F)cc(Nc2ncc(Nc3ccc(SC(F)(F)F)cc3)cc2C(N)=O)c1 ?
1180

* * *

target desc: Receptor-interacting serine/threonine-protein kinase 1 (Homo sapiens)
Sequence (Q13546 whole entry, the tested form may be a part): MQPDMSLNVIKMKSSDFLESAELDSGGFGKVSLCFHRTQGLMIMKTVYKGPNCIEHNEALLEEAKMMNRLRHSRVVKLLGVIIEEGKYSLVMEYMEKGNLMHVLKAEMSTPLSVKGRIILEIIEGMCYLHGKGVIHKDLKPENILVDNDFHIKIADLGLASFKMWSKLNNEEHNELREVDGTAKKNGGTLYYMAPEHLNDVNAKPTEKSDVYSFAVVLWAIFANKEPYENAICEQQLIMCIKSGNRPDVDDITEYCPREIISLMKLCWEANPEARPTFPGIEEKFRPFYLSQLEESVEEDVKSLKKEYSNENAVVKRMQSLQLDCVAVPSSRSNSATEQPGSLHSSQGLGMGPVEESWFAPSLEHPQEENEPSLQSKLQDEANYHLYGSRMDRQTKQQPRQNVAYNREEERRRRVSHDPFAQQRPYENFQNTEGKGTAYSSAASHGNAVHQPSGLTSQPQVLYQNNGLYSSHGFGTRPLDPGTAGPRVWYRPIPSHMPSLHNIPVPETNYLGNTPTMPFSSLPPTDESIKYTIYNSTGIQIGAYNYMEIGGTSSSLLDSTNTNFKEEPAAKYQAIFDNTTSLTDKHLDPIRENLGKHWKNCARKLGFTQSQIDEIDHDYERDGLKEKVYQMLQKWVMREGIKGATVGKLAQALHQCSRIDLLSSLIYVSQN
test description: Inhibition of recombinant RIPK1 (1 to 327 residues) (unknown origin) expressed in Escherichia coli BL21([…]) using MBP as substrate preincubated for 15 mins followed by substrate and ATP addition and measured after 90 mins by ADP-Glo luminescence […] assay
Below, each entry is listed with its recorded pIC50.
In simple prose, pIC50 is minus the logarithm base ten of a concentration in moles per litre.

I am curious: what pIC50 value has been reported for Cc1cc(F)cc(Nc2ncc(Nc3ccc4c(c3)CCCC4)cc2C(N)=O)c1 ?
6.16

Next up: COc1ccc(Nc2cnc(Nc3cc(C)cc(F)c3)c(C(N)=O)c2)cc1
6.52

Next up: Cc1cc(F)cc(Nc2ncc(Nc3ccc(Oc4ccccc4)cc3)cc2C(N)=O)c1
6.06

Next up: Cc1cc(F)cc(Nc2ncc(Nc3ccc(-c4ccco4)cc3)cc2C(N)=O)c1
6.44

Next up: Cc1cc(F)cc(Nc2ncc(Nc3ccc(C)c(C)c3)cc2C(N)=O)c1
5.80

Next up: C=Cc1ccc(Nc2cnc(Nc3cc(C)cc(F)c3)c(C(N)=O)c2)cc1
6.32

Next up: Cc1cc(F)cc(Nc2ncc(Nc3ccc(C(F)(F)F)cc3)cc2C(N)=O)c1
6.38

The measured values listed here are drawn from ChEMBL document CHEMBL6074641.
